molecular target: UniProt O60674; test: JAK2V617F kinase, IRF1 reporter and Ba/F3 cytotoxicity panel, late-stage follow-up, HEL and Ba/F3 cells (AID 2165); details: JAK2V617F
Activity calls are given as the source filed them. No stated cut-off is given here; in the data, active means IC50 below about 9 µM; inactive means the rest.
# reported IC50; entries follow

The examples below pair each entry with its known result.
Cc1ccc(C=CC(=O)c2c3c(c(C)[nH]c2=O)CCCC3)cc1
3.38 µM
COCCOc1cc2ncnc(Nc3cccc(C#Cc4ccc(O)cc4)c3)c2cc1OCCOC
2.74 µM
Cc1cccc(OCC(=O)Nc2cccc(C)c2C)c1
> 40 µM (inactive)
COc1cc2ncnc(Sc3ccc(C)cc3)c2cc1OC
> 40 µM (inactive)
COc1cc2ncnc(N[C@H](C)c3ccccc3)c2cc1OC
3.18 µM

Q) Return the recorded IC50 value; entry: `COc1ccc(C=CC(=O)c2c3c(c(C)[nH]c2=O)CCCC3)cc1`
A) 6.94 µM

Q) Return the recorded IC50 value; entry: `CC(C)[C@@H](CO)Nc1nc(Nc2cccc(Cl)c2)c2ncn(C(C)C)c2n1`
A) 0.91 µM

Q) Return the recorded IC50 value; entry: CCC(C)c1ccc(OCC(=O)Nc2cc(C)ccc2O)cc1 (stereo unspecified)
A) 33.2 µM

Q) Return the recorded IC50 value; entry: `Cc1[nH]c(=O)c(C(=O)/C=C/c2ccccc2F)c2c1CCCC2`
A) 0.45 µM

Q) Return the recorded IC50 value; entry: `Cc1[nH]c(=O)c(C(=O)C=Cc2ccc(C(C)C)cc2)c2c1CCCC2`
A) 2.29 µM

Q) Return the recorded IC50 value; entry: `COc1cc2ncnc(NC3CCCCC3)c2cc1OC`
A) > 40 µM (inactive)

---

biological target: UniProt:O60674; assay: JAK2V617F kinase, IRF1 reporter and Ba/F3 cytotoxicity panel, late-stage follow-up, HEL and Ba/F3 cells (AID 2165); conditions: HEL, irf1 reporter
Calls of active or inactive are those of the source. Cut-off read from the data, not from the text of the source: active = IC50 below about 9 µM; inactive = the rest.
Could you please pick one outcome from this set? active, inactive

O=C(CCl)N=c1sccn1Cc1ccccc1Cl
active
CCCCn1c(=N)n(CC(=O)c2ccc(Br)s2)c2ccccc21
active
O=C(CCl)N=c1sccn1Cc1cccc2ccccc12
active
Cc1nn(Cc2ccc(Cl)cc2Cl)c(C)c1NC(=O)CCl
active
O=C(O)c1[nH]c(=O)[nH]c(=O)c1F
inactive

Q) Please indicate how the test categorized `COc1cc2ncnc(Nc3cccc(C)c3)c2cc1OC` .
A) active

Q) Please indicate how the test categorized `COc1ccc(Nc2ccc3c(c2)=NC2(CCCCC2)[N+]=3[O-])cc1` .
A) active

Q) Please indicate how the test categorized `O=S(=O)(c1cccs1)N1CCN(c2ccc(O)cc2)CC1` .
A) active

Q) Please indicate how the test categorized `O=C(OCn1ncc(Cl)c(Cl)c1=O)c1ccc(F)cc1` .
A) active

Q) Please indicate how the test categorized `CC1CCN(CCCNC(=O)c2cc3c(Cl)nc4ccccc4c3s2)CC1` .
A) inactive

Q) Please indicate how the test categorized CC1CCCN(CCCNC(=O)c2cc3c(Cl)nc4ccccc4c3s2)C1 (stereo unspecified) .
A) inactive

Q) Please indicate how the test categorized `Cc1[nH]c(=O)c(C(=O)C=Cc2cccc(Br)c2)c2c1CCCC2` .
A) active

Q) Please indicate how the test categorized `O=C(Nc1cccc2c1[nH]c1ccccc12)C(F)(F)F` .
A) active

Q) Please indicate how the test categorized `COC(=O)/C=C/c1ccc(OC(=O)OC)c(OC(=O)OC)c1` .
A) active

---

molecular target: Tyrosine-protein kinase JAK2 (Homo sapiens) (UniProt O60674); experiment: JAK2V617F kinase, IRF1 reporter and Ba/F3 cytotoxicity panel, late-stage follow-up, HEL and Ba/F3 cells (AID 2165); details: Ba/F3, irf1 reporter; in the data active = IC50 below about 9 µM; inactive = the rest
Sequence (O60674 whole entry, looked up, change not shown): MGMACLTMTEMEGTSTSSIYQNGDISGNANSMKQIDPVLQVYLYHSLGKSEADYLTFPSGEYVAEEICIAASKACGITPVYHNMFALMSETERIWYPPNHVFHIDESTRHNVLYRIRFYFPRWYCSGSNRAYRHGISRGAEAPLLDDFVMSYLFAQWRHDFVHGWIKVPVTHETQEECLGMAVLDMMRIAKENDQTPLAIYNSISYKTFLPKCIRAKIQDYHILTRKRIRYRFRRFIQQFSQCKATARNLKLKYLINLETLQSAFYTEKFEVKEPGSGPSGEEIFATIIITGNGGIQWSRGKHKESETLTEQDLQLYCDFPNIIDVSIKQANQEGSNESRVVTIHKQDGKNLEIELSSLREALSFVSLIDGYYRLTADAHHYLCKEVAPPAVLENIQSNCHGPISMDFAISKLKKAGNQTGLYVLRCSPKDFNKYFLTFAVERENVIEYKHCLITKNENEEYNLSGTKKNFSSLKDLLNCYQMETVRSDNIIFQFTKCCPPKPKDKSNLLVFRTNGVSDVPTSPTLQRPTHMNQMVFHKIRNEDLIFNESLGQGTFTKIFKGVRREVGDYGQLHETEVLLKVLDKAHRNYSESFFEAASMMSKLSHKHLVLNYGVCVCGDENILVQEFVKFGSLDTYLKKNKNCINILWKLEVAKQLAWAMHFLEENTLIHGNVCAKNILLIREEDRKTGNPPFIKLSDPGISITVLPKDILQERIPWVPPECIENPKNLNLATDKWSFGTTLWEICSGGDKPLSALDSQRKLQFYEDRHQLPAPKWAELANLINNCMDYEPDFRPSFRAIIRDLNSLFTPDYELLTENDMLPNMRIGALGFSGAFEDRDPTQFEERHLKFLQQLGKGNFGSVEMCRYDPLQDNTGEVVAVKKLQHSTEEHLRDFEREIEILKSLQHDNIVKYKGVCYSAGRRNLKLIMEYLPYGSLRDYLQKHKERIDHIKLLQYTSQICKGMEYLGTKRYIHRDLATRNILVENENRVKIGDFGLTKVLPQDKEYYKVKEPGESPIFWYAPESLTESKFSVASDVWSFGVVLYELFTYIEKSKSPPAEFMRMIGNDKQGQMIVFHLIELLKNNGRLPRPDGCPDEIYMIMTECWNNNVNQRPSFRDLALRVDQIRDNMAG
Could you please pick one outcome from this set? active, inactive

COC(=O)COc1cccc2c(=O)n(CC(=O)NCc3ccc(F)cc3)ccc12
active
O=C(CCl)N=c1sccn1Cc1ccccc1Cl
active

Let's switch to this compound now.
Q) Please indicate how the test categorized `COc1ccc(-c2cc(-c3cc(C)ccc3O)[nH]n2)cc1` .
A) active

---

molecular target: Tyrosine-protein kinase JAK2 (Homo sapiens); assay: JAK2V617F kinase, IRF1 reporter and Ba/F3 cytotoxicity panel, late-stage follow-up, HEL and Ba/F3 cells (AID 2165); conditions: HEL, irf1 reporter
Activity calls are given as the source filed them. Rule as the data show it: active = IC50 below about 9 µM; inactive = the rest.
recorded-metric: IC50

The examples below pair each entry with its known result.
COc1ccc(-c2cnc3c(c2)CCC3(C#N)C#N)cc1
10.4 µM
C=CCNc1ncnc2cc(OC)c(OC)cc12
> 40 µM (inactive)
COc1cc2ncnc(NC3CCCCC3)c2cc1OC
5.22 µM
Cc1ccc(Cn2ccsc2=NC(=O)CCl)cc1
3.11 µM
Cc1ccc(C=CC(=O)c2c3c(c(C)[nH]c2=O)CCCC3)cc1
23.9 µM

With those in mind, consider the next compound.
Q) Return the recorded IC50 value; entry: `Cc1nn2c(NCc3ccccn3)c3c(nc2c1-c1ccccc1)CCC3`
A) 9.49 µM

---

target: UniProt:O60674; test: JAK2V617F kinase, IRF1 reporter and Ba/F3 cytotoxicity panel, late-stage follow-up, HEL and Ba/F3 cells (AID 2165); conditions: JAK2V617F
Active and inactive are the calls of the source. Rule as the data show it: active = IC50 below about 9 µM; inactive = the rest.
recorded-metric: IC50

COc1cccc(Nc2ncnc3cc(OC)c(OC)cc23)c1
> 40 µM (inactive)
O=C(COc1ccccc1)Nc1ncccn1
> 40 µM (inactive)
N#Cc1ccccc1NC(=O)COc1ccc2c(c1)OCO2
> 40 µM (inactive)
CC(C)c1cc(C=C(C#N)C(=O)NCCCc2ccccc2)cc(C(C)C)c1O
3.97 µM
Cc1ccc(O)c(NC(=O)COc2cccc(C)c2C)c1
> 40 µM (inactive)
Cc1[nH]c(=O)c(C(=O)C=Cc2ccc(I)cc2)c2c1CCCC2
> 40 µM (inactive)
Cc1ccc(O)c(NC(=O)COc2cc(C)c(Cl)c(C)c2)c1
> 40 µM (inactive)
C=CCNc1ncnc2cc(OC)c(OC)cc12
> 40 µM (inactive)
COc1ccc(C)cc1NC(=O)Nc1ccc(Br)cn1
> 40 µM (inactive)
COc1ccccc1/C=C/C(=O)c1c2c(c(C)[nH]c1=O)CCCC2
1.27 µM

Q) Return the recorded IC50 value; entry: `COc1cc2ncnc(Nc3ccc(F)c(F)c3)c2cc1OC`
A) > 40 µM (inactive)

Q) Return the recorded IC50 value; entry: `Clc1cccc(Nc2ncnc3ccccc23)c1`
A) > 40 µM (inactive)

---

target: UniProt O60674; assay: JAK2V617F kinase, IRF1 reporter and Ba/F3 cytotoxicity panel, late-stage follow-up, HEL and Ba/F3 cells (AID 2165); conditions: HEL, irf1 reporter
Active and inactive are the calls of the source. Rule as the data show it: active = IC50 below about 9 µM; inactive = the rest.
Could you please pick one outcome from this set? Yes = active, No = inactive

Some solved cases for reference:
COc1ccc(C=CC(=O)c2c3c(c(C)[nH]c2=O)CCCC3)cc1
No
Cc1cccc(Nc2nc(N)nc(CCl)n2)c1C
Yes
O=C1C=CCC(/C=C/c2ccccc2)O1 (stereo not drawn)
Yes

Let's switch to this compound now.
Q) Please indicate how the test categorized `O=C1C=C(Nc2ccc(O)cc2)C(=O)c2ccccc21` .
A) Yes

---

target: Tyrosine-protein kinase JAK2 (Homo sapiens) (UniProt O60674); assay: JAK2V617F kinase, IRF1 reporter and Ba/F3 cytotoxicity panel, late-stage follow-up, HEL and Ba/F3 cells (AID 2165); settings: HEL, irf1 reporter
The source made the active and inactive calls. Cut-off read from the data, not from the text of the source: active = IC50 below about 9 µM; inactive = the rest.
Could you please pick one outcome from this set? t = active, f = inactive

Q) Please indicate how the test categorized `COCCOc1cc2nc[nH]c(=O)c2cc1OCCOC` .
A) f

---

molecular target: UniProt:O60674; assay: JAK2V617F kinase, IRF1 reporter and Ba/F3 cytotoxicity panel, late-stage follow-up, HEL and Ba/F3 cells (AID 2165); conditions: JAK2V617F
The source made the active and inactive calls. No stated cut-off is given here; in the data, active means IC50 below about 9 µM; inactive means the rest.
Could you please pick one outcome from this set? active, inactive

Some solved cases for reference:
Cc1ccc(O)c(NC(=O)COc2cc(C)ccc2C)c1
active
Cc1[nH]c(=O)c(C(=O)C=Cc2ccccc2Cl)c2c1CCCC2
active
Cc1ccc(O)c(NC(=O)COc2ccc(C)c(C)c2)c1
inactive
Cc1nnc(NC(=O)COc2ccccc2)s1
inactive
COc1cc2ncnc(Nc3ccc(OC(F)(F)F)cc3)c2cc1OC
inactive
Cc1cccc(OCC(=O)Nc2ccc(O)cc2)c1
inactive
Cc1ccc(O)c(NC(=O)COc2cccc3ccccc23)c1
active
N#CC(C#N)=Cc1cc(O)c(O)c(I)c1
active

Q) Please indicate how the test categorized `Cc1[nH]c(=O)c(C(=O)C=Cc2ccc(Cl)cc2Cl)c2c1CCCC2` .
A) active

Q) Please indicate how the test categorized `CCOc1cc2ncnc(Nc3cccc(Br)c3)c2cc1OCC` .
A) active

Q) Please indicate how the test categorized `Cc1ccc(O)c(NC(=O)COc2ccccc2Cl)c1` .
A) active

Q) Please indicate how the test categorized `COc1cc2ncnc(NC(C)C)c2cc1OC` .
A) inactive
